Values were extracted from PubChem BioAssay (NCI).

The following compounds are shown together with reported TGI values.
System: SK-MEL-28 melanoma
test name: NCI tumour cell line growth inhibition, 48 h
Where a SMILES comes first, the peptide text is derived from it. Bridges are numbered along the chain shown (N, C = ends). Roman numbers before positions name the chains, in order. [ ]: non-standard residue; d: D form. The star is where a group is joined. Heptadecanoyl = CCCCCCCCCCCCCCCCC(=O)*; Phg = N[CH](C(=O)O)c1ccccc1

Sample records with TGI:
O=C(Nc1cccc(-n2cc(-c3ccncc3)c(-c3ccc(O)c(Cl)c3)n2)c1)Nc1ccc(Cl)c(C(F)(F)F)c1	3.8 µM
CCCCCCCCCCCCCCCCC(=O)N1CCCC1C(=O)NCC(=O)NC(C(=O)N1CCCC1C(=O)NC(CO)C(=O)NC(Cc1ccc(O)cc1)C(=O)NC(CCCCNC(=O)C1CCCN1C(=O)C(CCCCN)NC(=O)C(CCCCN)NC(=O)C(CCCCN)NC(=O)C(CCCNC(=N)N)NC(=O)C(CCCCN)NC(=O)C(N)C(C)C)C(=O)NC(CC(C)C)C(=O)NC(CCCNC(=N)N)C(=O)N1CCCC1C(=O)NCC(N)=O)c1ccccc1 (stereo not given) (I: Heptadecanoyl-PG[Phg]PSYKLRPG-NH2 / II: H-VKRKKKP; amide I:7-II:C; configuration not given here)	> 100 µM
CC1(c2nc3cc(Cl)c(Cl)cc3[nH]2)CCC(C(=O)O)C(C)(C)O1 (stereo not given)	> 100 µM
CCCN1CN(C(C(=O)N[C@@H]2C(=O)N3C(C(=O)O)=C(C)CSC23)c2ccccc2)CSC1=S (stereo not given in full)	> 100 µM

## Input Short answer please: TGI, SK-MEL-28 melanoma, entry CCOC(=O)c1cc(Cl)ccc1OC(N)=O
## Output > 100 µM
